biological target: Wee1 kinase (Homo sapiens); test: Wee1 kinase-inhibitory effect (33P-ATP, Poly(Lys,Tyr) substrate, filter assay); settings: 10 μM ATP, 30° C., 30 minutes
pIC50: −log10 of the molar value.
endpoint_label: pIC50

Would you please look over these solved cases?
CN1CCc2ccc(Nc3ncc4c(=N)n(-c5c(Cl)cc(F)cc5Cl)c(=O)[nH]c4n3)cc2C1
8.05
CN1Cc2cc(Nc3ncc4c(=N)n(-c5c(Cl)cccc5Cl)c(=O)[nH]c4n3)ccc2C1(C)C
8.37
CN(C)C1Cc2ccc(Nc3ncc4c(=N)n(-c5c(Cl)cccc5Cl)c(=O)n(C)c4n3)cc2C1 (stereo not drawn)
8.18

(a) CN1CCc2ccc(Nc3ncc4c(=N)n(-c5c(F)cc(F)cc5Cl)c(=O)[nH]c4n3)cc2C1
(b) CN(C)C1CCc2ccc(Nc3ncc4c(=N)n(-c5c(Cl)cccc5Cl)c(=O)[nH]c4n3)cc2C1 (stereo not drawn)
Prompt: a or b : whose pIC50 is greater? // return label of chosen record
Completion: b

(P) CN1Cc2cc(Nc3ncc4c(=N)n(-c5c(Cl)cccc5Cl)c(=O)[nH]c4n3)ccc2C(C)(C)C1
(Q) CN1CCc2cc(Nc3ncc4c(=N)n(-c5c(Cl)ccnc5Cl)c(=O)[nH]c4n3)ccc2C1(C)C
Prompt: Hello, I am sorting some records. Could you say if P or Q has the smaller pIC50 value? // return label of chosen record
Completion: Q

(a) CC(=O)N1CCc2cc(Nc3ncc4c(=N)n(-c5c(Cl)cccc5Cl)c(=O)[nH]c4n3)ccc2C1(C)C
(b) CN1Cc2cc(Nc3ncc4c(=O)n(-c5c(Cl)cccc5Cl)c(=O)[nH]c4n3)ccc2C2(CC2)C1
Prompt: Hello, I am sorting some records. Could you say if a or b has the smaller pIC50 value? // return label of chosen record
Completion: a
(a: 8.20, b: 8.48)

(A) CN(C)CC1CCc2cc(Nc3ncc4c(=N)n(-c5c(Cl)cccc5Cl)c(=O)[nH]c4n3)ccc2C1 (stereo not drawn)
(B) CN(C)C1CC(C)(C)c2ccc(Nc3ncc4c(=N)n(-c5c(Cl)cccc5Cl)c(=O)[nH]c4n3)cc21 (stereo not drawn)
Prompt: Hello, I am sorting some records. Could you say if A or B has the smaller pIC50 value? // return label of chosen record
Completion: B
(B: 7.88, A: 8.19)

###

molecular target: Wee1 kinase (Homo sapiens, UniProt P30291); experiment: Wee1 kinase-inhibitory effect (33P-ATP, Poly(Lys,Tyr) substrate, filter assay); conditions: 10 μM ATP, 30° C., 30 minutes
Sequence (P30291 whole entry): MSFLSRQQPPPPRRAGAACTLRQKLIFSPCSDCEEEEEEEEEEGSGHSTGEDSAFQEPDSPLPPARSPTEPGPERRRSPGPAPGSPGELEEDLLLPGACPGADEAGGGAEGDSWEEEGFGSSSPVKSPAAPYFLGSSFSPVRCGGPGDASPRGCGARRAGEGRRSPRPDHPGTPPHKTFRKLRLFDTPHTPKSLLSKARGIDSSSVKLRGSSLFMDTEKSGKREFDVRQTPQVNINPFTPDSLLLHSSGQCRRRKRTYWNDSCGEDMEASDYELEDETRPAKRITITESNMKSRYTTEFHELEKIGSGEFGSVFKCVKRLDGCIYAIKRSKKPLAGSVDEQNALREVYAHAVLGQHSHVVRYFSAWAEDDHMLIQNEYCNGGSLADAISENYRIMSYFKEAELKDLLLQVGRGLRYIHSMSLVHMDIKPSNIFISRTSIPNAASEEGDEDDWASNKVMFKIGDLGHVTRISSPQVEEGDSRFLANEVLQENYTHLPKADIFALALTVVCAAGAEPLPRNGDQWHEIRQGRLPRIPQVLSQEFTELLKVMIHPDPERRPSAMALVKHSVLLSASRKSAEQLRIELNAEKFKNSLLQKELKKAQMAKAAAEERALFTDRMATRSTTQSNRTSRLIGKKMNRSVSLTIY
Counter-ions that a name gives are not always drawn.
endpoint_label: IC50 (nM)

Would you please look over these solved cases?
Cc1cc(Nc2ncc3c(=N)n(-c4c(Cl)cccc4Cl)c(=O)[nH]c3n2)cc2c1CCN(C)C2 [Example 21]
4.8
CN1Cc2cc(Nc3ncc4c(=N)n(-c5c(Cl)cccc5Cl)c(=O)[nH]c4n3)ccc2C2(CC2)C1 [Example 1, dihydrochloride]
5
CN1CCc2ccc(Nc3ncc4c(=N)n(-c5c(Cl)cccc5Cl)c(=O)[nH]c4n3)cc2CC1 [Example 48]
8.6

(A) Cc1cccc(Cl)c1-n1c(=O)[nH]c2nc(Nc3ccc4c(c3)CN(C)CC43CC3)ncc2c1=N [Example 14]
(B) CCN1CCc2cc(Nc3ncc4c(=N)n(-c5c(Cl)cccc5Cl)c(=O)[nH]c4n3)ccc2C1 [Example 30]
Prompt: A or B : whose IC50 is greater? // return label of chosen record
Completion: A
